- test.target: Glutathione hydrolase 1 proenzyme (Homo sapiens)
- Sequence (P19440 1-380 limits assumed): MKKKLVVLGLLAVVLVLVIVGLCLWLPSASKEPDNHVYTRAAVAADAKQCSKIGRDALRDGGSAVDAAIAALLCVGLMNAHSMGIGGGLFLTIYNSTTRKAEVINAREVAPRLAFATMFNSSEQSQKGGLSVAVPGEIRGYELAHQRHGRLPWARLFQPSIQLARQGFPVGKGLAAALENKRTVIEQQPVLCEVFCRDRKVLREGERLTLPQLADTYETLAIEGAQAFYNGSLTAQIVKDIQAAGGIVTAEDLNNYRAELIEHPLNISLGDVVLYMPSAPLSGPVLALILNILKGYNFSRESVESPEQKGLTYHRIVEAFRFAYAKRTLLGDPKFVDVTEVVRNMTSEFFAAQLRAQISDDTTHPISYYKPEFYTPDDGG
- Sequence (P19440 381-569 limits assumed): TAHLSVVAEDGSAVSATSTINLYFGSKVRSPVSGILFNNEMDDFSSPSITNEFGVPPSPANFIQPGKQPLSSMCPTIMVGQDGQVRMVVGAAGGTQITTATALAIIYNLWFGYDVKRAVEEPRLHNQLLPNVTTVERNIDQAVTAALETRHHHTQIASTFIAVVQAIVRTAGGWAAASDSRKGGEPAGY
property.measured: IC50

(Q) Item CNC(=O)C1=C(C)C2Sc3ccccc3N=C2C(C(=O)NC)C1c1ccccc1OC (stereo unspecified) has what recorded IC50?
(A) > 30 µM
